molecular target: Acetylcholinesterase (AChE) from Electrophorus electricus (Electrophorus electricus); construct: purchased Sigma-Aldrich type VI-S (catalogue number not given); assay: biochemical; details: isolated compounds, Table 4; read-out: AChE (IC50)
Test Readout: pIC50
Entry type: numeric. Quantity: pIC50, the -log10 of concentration in molar units.

[
  {
    "Compound": "O=Cc1ccc(CO)o1",
    "pIC50": 3.80
  }
]

Next compound, please.
May I ask what pIC50 has been recorded for CCCCCCCCCCCCCCCCCCCCOC(=O)CCCCCCCCCCCCCCCCCCC [Compound 1, Arachidyl arachidate] ?
3.60

* * *

target: Acetylcholinesterase (AChE) from Electrophorus electricus (Electrophorus electricus, UniProt O42275); construct: purchased Sigma-Aldrich type VI-S (catalogue number not given); test: biochemical; conditions: AChE (IC50) µM, isolated compounds, Table 4
Sequence (O42275 24-633): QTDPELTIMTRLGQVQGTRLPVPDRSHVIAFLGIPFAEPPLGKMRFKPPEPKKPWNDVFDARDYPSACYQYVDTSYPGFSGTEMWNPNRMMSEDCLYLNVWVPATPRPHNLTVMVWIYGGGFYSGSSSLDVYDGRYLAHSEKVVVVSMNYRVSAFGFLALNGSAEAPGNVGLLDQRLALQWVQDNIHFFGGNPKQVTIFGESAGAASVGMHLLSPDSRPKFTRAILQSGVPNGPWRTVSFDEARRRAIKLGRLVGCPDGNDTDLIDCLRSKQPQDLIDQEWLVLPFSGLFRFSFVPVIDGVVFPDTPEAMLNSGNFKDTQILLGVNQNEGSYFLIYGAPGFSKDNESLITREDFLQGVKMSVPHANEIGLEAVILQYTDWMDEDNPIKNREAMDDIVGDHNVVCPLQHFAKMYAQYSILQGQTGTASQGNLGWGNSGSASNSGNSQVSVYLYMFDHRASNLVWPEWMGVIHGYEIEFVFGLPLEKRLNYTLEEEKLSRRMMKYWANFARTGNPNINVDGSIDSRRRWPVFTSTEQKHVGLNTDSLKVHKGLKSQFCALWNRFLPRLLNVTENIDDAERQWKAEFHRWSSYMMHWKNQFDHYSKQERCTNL
Test Readout: IC50 (µM)
Record the value in µM, omitting the unit from your answer.

Record excerpt, results attached:
[
  {
    "Compound": "O=C(O)C=Cc1ccc(O)cc1 [Compound 6, 4-Hydroxycinnamic acid]",
    "Test Readout": "IC50",
    "Unit Of Measure": "µM",
    "Numeric Result": 43.4
  },
  {
    "Compound": "O=c1cc(-c2ccc(O)c(O)c2)oc2cc(O)cc(O)c12",
    "Test Readout": "IC50",
    "Unit Of Measure": "µM",
    "Numeric Result": 20.5
  }
]

Then this compound:
Record request: IC50 value, item CC[C@H](CC[C@@H](C)[C@H]1CC[C@H]2[C@@H]3CC=C4C[C@@H](O)CC[C@]4(C)[C@H]3CC[C@]12C)C(C)C
137
